Just for reference, patent US7989464B2 is where these values come from.

# Assay System: hmGluR1 receptor (Homo sapiens)
# Construct: expressed in transfected cells
# Sequence (Q13255 19-1194): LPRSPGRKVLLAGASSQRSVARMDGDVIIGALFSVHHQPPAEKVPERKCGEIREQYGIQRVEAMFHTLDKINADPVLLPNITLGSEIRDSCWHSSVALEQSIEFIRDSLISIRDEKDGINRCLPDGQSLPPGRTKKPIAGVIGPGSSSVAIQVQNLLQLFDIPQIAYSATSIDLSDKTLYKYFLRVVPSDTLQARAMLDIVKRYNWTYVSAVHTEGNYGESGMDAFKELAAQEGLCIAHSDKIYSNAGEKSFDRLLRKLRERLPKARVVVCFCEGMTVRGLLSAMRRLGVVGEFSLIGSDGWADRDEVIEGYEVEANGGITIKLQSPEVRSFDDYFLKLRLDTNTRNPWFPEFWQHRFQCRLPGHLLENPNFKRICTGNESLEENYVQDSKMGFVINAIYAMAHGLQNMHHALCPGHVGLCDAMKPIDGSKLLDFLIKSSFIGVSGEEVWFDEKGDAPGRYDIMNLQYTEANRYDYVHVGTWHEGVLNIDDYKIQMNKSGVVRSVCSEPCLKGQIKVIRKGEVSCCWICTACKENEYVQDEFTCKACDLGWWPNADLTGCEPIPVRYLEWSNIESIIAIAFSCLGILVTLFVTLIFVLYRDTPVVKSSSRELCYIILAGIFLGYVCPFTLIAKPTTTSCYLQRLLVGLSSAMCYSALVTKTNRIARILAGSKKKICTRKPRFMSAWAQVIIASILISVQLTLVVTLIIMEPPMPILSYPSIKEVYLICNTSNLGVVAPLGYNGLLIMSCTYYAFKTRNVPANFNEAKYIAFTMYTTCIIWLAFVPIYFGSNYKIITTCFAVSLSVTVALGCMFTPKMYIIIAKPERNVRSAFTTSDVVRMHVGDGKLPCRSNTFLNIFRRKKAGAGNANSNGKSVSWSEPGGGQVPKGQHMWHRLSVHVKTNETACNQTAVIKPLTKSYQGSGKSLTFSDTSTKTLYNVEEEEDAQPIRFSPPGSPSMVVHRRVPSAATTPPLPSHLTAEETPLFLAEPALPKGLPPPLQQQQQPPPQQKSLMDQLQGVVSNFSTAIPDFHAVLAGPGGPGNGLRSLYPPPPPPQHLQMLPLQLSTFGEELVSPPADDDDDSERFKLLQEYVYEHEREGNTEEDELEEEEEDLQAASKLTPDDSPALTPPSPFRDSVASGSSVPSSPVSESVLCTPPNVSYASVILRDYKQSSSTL
# Procedure Text: IC50 determination: intracellular calcium mobilization (FLIPR) upon Quisqualate stimulation in CHO cells stably expressing hmGluR1
# Type: cell-based
# Measurement Setup: against Quisqualate 1 μM (EC80), class symbols, read-out: mGIuR 1 IC50
Observed Property: IC50

Guide cases for IC50, answers given:
CN(C)c1cncc2sc3c(=O)n(-c4ccccc4)cnc3c12 [37D] : 150 to 1000 nM
Cc1nc2cc(-n3cnc4c(sc5nccc(N(C)C)c54)c3=O)ccc2o1 : > 1000 nM

Consider the record given below.
Return IC50 (reported value) for this compound: "CN(C)c1ccnc2sc3c(=O)n(-c4ccc5nc[nH]c5c4)cnc3c12" 50 to 150 nM
